This collection of values is drawn from patent US12258328B2.

Exercise: for every item that follows, state its recorded IC50.
target: EGFR L858R/T790M/C797S (Homo sapiens, UniProt P00533, C797S/L858R/T790M); experiment: Biochemical EGFR kinase assay (Lance Ultra TR-FRET), triple mutant L858R/T790M/C797S; conditions: IC50 L858R/T790M/C797S (nM) 100 μM ATP, 100 μM ATP
Sequence (P00533 25-1210 T790M/C797S/L858R): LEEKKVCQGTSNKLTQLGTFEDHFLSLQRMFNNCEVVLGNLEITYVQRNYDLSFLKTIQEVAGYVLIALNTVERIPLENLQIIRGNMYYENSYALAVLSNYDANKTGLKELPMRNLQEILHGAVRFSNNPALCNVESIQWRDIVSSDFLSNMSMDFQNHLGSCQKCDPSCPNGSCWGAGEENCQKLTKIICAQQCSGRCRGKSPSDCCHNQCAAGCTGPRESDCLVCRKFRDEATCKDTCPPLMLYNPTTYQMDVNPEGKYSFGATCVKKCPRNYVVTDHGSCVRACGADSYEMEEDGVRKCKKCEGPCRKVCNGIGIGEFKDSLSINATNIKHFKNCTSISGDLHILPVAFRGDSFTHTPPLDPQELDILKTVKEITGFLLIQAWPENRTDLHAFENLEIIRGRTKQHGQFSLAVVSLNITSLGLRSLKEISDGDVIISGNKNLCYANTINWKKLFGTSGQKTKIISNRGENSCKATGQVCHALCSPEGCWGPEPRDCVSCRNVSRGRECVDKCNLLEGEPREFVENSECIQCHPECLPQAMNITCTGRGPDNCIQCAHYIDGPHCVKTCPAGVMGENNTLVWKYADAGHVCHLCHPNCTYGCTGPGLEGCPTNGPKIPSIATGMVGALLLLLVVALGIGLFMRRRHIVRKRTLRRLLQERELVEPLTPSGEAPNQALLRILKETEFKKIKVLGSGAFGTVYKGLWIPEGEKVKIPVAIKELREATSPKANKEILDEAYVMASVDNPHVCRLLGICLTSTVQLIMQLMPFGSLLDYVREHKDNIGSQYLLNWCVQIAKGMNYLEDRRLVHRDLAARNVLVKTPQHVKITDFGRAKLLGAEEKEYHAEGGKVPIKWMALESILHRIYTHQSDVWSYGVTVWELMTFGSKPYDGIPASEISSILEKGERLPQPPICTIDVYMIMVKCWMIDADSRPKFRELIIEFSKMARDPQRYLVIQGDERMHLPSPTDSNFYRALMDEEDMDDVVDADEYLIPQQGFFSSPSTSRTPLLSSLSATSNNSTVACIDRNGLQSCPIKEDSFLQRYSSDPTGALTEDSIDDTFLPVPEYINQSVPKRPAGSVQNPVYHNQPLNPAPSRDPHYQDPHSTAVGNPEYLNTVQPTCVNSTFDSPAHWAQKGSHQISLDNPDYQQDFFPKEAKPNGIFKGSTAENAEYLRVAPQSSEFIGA
Express it in nM; write the number only.

Reported IC50 of C[C@]1(O)CC[C@@H](Nc2cc(Nc3ccnc(-c4cnn(S(=O)(=O)C5CC5)c4)n3)ncc2-c2cnc(CO)cn2)CC1 [Example 60] : 0.4

So, O=S(=O)(C1CC1)n1cc(-c2nccc(Nc3cc(N[C@H]4CC[C@@H](CO)CC4)c(-c4cc(CN5CCC(F)(F)CC5)ccn4)cn3)n2)cn1 [Example 113] ? Its IC50 was 3.2

Reported IC50 for C[C@]1(O)CC[C@@H](Nc2cc(Nc3ccnc(-c4cnn(S(=O)(=O)C5CC5)c4)n3)ncc2-c2cccc(CN3CCOCC3)n2)CC1 [Example 29] was 0.4

Record summary for O=S(=O)(C1CC1)n1cc(-c2nccc(Nc3cc(N[C@H]4CC[C@H](CCO)CC4)c(-c4cc(C(F)F)ccn4)cn3)n2)cn1 [Example 96] : reported IC50 = 0.8

Note to self: IC50 recorded for CN1CCN(Cc2cnc(-c3cnc(Nc4ccnc(-c5cnn(S(=O)(=O)C6CC6)c5)n4)cc3N[C@H]3CC[C@@](C)(O)CC3)cn2)CC1 [Example 62] was 0.1

// CC(C)(O)c1cc(-c2cnc(Nc3ccnc(-c4cnn(S(=O)(=O)C5CC5)c4)n3)cc2N[C@H]2CC[C@@](C)(O)CC2)ncc1F [Example 104] : IC50 value = 0.8

IC50 in this record for C[C@]1(O)CC[C@@H](Nc2cc(Nc3ccnc(-c4cnn(S(=O)(=O)C5CC5)c4)n3)ncc2-c2ccc(C(F)F)cn2)CC1 [Example 63] : 0.2

Looking up CC(C)(O)[C@H]1CC[C@@H](Nc2cc(Nc3ccnc(-c4cnn(S(=O)(=O)C5CC5)c4)n3)ncc2-c2ccc(CN3CCC(O)CC3)cn2)CC1 [Example 98] , I found its IC50 recorded as 0.2

// IC50 lookup, molecule = CC(C)(O)[C@H]1CC[C@@H](Nc2cc(Nc3ccnc(-c4cnn(S(=O)(=O)C5CC5)c4)n3)ncc2-c2ccc(CN3CCOCC3)cn2)CC1 [Example 25] , result: 1.2

The reported value for C[C@]1(O)CC[C@@H](Nc2cc(Nc3ccnc(-c4cnn(S(=O)(=O)C5CC5)c4)n3)ncc2-c2cc(CN3CCC(F)(F)CC3)ccn2)CC1 [Example 112] in terms of IC50 is 3.6

Note to self: IC50 recorded for O=S(=O)(C1CC1)n1cc(-c2nccc(Nc3cc(N[C@H]4CC[C@@H](CO)CC4)c(-c4cc(C(F)F)ccn4)cn3)n2)cn1 [Example 77] was 1.4

Looking up O=S(=O)(C1CC1)n1cc(-c2nccc(Nc3cc(N[C@H]4CC[C@@H](CO)CC4)c(-c4cnc(N5CCC(F)(F)CC5)cn4)cn3)n2)cn1 [Example 70] , I see its IC50 listed as 4.9

###

target: EGFR L858R/C797S (Homo sapiens, UniProt P00533, C797S/L858R); experiment: Biochemical EGFR kinase assay (Lance Ultra TR-FRET), double mutant L858R/C797S; details: Km ATP; read-out: IC50 L858R/C797S (nM) Km ATP
Sequence (P00533 25-1210 C797S/L858R): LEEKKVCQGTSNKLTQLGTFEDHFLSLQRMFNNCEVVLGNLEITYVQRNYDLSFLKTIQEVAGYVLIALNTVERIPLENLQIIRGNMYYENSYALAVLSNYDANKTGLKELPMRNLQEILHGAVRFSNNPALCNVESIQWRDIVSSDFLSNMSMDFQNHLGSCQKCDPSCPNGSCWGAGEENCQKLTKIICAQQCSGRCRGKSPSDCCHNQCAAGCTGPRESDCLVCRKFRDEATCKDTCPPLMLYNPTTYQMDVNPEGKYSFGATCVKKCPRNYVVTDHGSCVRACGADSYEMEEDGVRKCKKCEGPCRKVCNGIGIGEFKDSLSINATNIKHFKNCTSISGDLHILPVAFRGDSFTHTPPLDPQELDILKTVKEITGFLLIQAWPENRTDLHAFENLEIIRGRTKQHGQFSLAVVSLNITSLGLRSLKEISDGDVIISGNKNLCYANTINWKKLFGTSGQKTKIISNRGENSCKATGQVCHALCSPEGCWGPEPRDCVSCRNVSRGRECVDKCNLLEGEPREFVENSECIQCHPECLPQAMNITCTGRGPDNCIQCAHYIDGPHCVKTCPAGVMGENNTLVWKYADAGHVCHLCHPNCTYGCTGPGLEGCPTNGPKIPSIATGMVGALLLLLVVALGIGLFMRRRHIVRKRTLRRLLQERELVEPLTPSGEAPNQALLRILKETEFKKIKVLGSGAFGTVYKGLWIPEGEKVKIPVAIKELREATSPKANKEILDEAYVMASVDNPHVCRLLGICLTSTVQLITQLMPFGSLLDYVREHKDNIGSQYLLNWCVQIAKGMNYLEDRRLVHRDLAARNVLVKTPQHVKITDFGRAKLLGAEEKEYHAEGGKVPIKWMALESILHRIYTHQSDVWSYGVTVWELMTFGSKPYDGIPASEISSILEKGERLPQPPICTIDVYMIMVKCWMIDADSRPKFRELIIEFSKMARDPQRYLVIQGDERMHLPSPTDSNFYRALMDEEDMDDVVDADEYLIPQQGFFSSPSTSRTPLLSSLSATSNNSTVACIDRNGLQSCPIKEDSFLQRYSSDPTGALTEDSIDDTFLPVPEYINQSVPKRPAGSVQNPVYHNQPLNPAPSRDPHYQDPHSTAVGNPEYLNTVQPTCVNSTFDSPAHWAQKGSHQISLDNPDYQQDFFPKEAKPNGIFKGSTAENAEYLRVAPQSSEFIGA
Kindly supply the reported log10 of IC50 values for the records listed here.
Log scale reminder: IC50 in nM, then log10 taken.

Sample CC(C)(O)c1cc(-c2cnc(Nc3ccnc(-c4cnn(S(=O)(=O)C5CC5)c4)n3)cc2N[C@H]2CC[C@@H](CO)CC2)ncc1F [Example 105] ; log10 of IC50 observed: -0.22

Item: C[C@]1(O)CC[C@@H](Nc2cc(Nc3ccnc(-c4cnn(S(=O)(=O)C5CC5)c4)n3)ncc2-c2cnc(C(F)(F)F)cn2)CC1 [Example 134] | log10 of IC50: 1.19

For reference, reported log10 of IC50 for CN(C)C[C@H]1CC[C@@H](Nc2cc(Nc3ccnc(-c4cnn(S(=O)(=O)C5CC5)c4)n3)ncc2-c2cnc(N3CCC(F)(F)CC3)cn2)CC1 [Example 74] stands at 0.51

Record CN(C)CCOc1cnc(-c2cnc(Nc3ccnc(-c4cnn(S(=O)(=O)C5CC5)c4)n3)cc2N[C@H]2CC[C@@H](CO)CC2)cn1 [Example 116] . Reported log10 of IC50: -1.00

Reported log10 of IC50 ( CN(C)C[C@H]1CC[C@@H](Nc2cc(Nc3ccnc(-c4cnn(S(=O)(=O)C5CC5)c4)n3)ncc2-c2cc(C(F)F)ccn2)CC1 [Example 79] ) = -0.15

Form: molecule = O=S(=O)(C1CC1)n1cc(-c2nccc(Nc3cc(N[C@H]4CC[C@@H](NCCF)CC4)c(-c4ccc(CO)cn4)cn3)n2)cn1 [Example 21] ; log10 of IC50 = 0.00

Record CN(C)CCOc1cnc(-c2cnc(Nc3ccnc(-c4cnn(S(=O)(=O)C5CC5)c4)n3)cc2N[C@H]2CC[C@@H](C(C)(C)O)CC2)cn1 [Example 117] . Reported log10 of IC50: -0.70

Looking up C[C@]1(O)CC[C@@H](Nc2cc(Nc3ccnc(-c4cnn(S(=O)(=O)C5CC5)c4)n3)ncc2-c2cc(N3CCOCC3)ccn2)CC1 [Example 48] , I found its log10 of IC50 recorded as 1.15

Lab book: log10 of IC50 of C[C@]1(O)CC[C@@H](Nc2cc(Nc3ccnc(-c4cnn(S(=O)(=O)C5CC5)c4)n3)ncc2-c2cc(CN3CCC(F)(F)CC3)ccn2)CC1 [Example 112] noted as 0.83

response.value for C[C@]1(O)CC[C@@H](Nc2cc(Nc3ccnc(-c4cnn(S(=O)(=O)C5CC5)c4)n3)ncc2-c2cc(OC(F)F)ccn2)CC1 [Example 331] (field: log10 of IC50) = 0.38

Item: O=S(=O)(C1CC1)n1cc(-c2nccc(Nc3cc(N[C@H]4CC[C@@H](CO)CC4)c(-c4cc(C(F)F)ccn4)cn3)n2)cn1 [Example 77] | log10 of IC50: 0.61

Entry under test: CN(C)Cc1ccc(-c2cnc(Nc3ccnc(-c4cnn(S(=O)(=O)C5CC5)c4)n3)cc2N[C@H]2CC[C@@H](C(C)(C)O)CC2)nc1 [Example 26] . Its log10 of IC50 was -1.00

###

target: EGFR L858R/T790M/C797S (Homo sapiens, UniProt P00533, C797S/L858R/T790M); test: Biochemical EGFR kinase assay (Lance Ultra TR-FRET), triple mutant L858R/T790M/C797S; conditions: IC50 L858R/T790M/C797S (nM) 100 μM ATP, 100 μM ATP
Would you kindly list IC50 for each of these compounds?
Only the number, expressed in nM, is required.

Data point: CC(C)(O)c1ccc(-c2cnc(Nc3ccnc(-c4cnn(S(=O)(=O)C5CC5)c4)n3)cc2N[C@H]2CC[C@@H](C(C)(C)O)CC2)nn1 [Example 88] ; IC50 = 0.4

Reported IC50 ( CN(C)CCOc1cnc(-c2cnc(Nc3ccnc(-c4cnn(S(=O)(=O)C5CC5)c4)n3)cc2N[C@H]2CC[C@@H](C(C)(C)O)CC2)cn1 [Example 117] ) = 0.1

The compound CN(C)C[C@H]1CC[C@@H](Nc2cc(Nc3ccnc(-c4cnn(S(=O)(=O)C5CC5)c4)n3)ncc2-c2ccc(N3CCC(F)(F)CC3)nn2)CC1 [Example 73] showed IC50 equal to 0.5

Measured IC50, CN(C)c1ccc(-c2cnc(Nc3ccnc(-c4cnn(S(=O)(=O)C5CC5)c4)n3)cc2N[C@H]2CC[C@@](C)(O)CC2)nc1 [Example 40] : 1.7

Sample O=S(=O)(C1CC1)n1cc(-c2nccc(Nc3cc(N[C@H]4CC[C@@H](NCCF)CC4)c(-c4ccccn4)cn3)n2)cn1 [Example 36] ; IC50 observed: 0.1

Per the record, C[C@]1(O)CC[C@@H](Nc2cc(Nc3ccnc(-c4cnn(S(=O)(=O)C5CC5)c4)n3)ncc2-c2cnc(N3CCC(F)(F)CC3)cn2)CC1 [Example 75] has IC50 of 15.2

Documented IC50 of C[C@]1(O)CC[C@@H](Nc2cc(Nc3ccnc(-c4cnn(S(=O)(=O)C5CC5)c4)n3)ncc2-c2ccc(CN3CCOCC3)cn2)CC1 [Example 32] : 0.3

The compound identified as CC(O)c1cccc(-c2cnc(Nc3ccnc(-c4cnn(S(=O)(=O)C5CC5)c4)n3)cc2NC2CCC(C)(O)CC2)n1 (stereo not drawn) [Example 23] registered its IC50 at 1

IC50 in this record for CC(C)(O)c1cnc(-c2cnc(Nc3ccnc(-c4cnn(S(=O)(=O)C5CC5)c4)n3)cc2N[C@H]2CC[C@@H](C(C)(C)O)CC2)cn1 [Example 120] : 0.4

Lab note: measured IC50 of CC(C)(O)c1cc(-c2cnc(Nc3ccnc(-c4cnn(S(=O)(=O)C5CC5)c4)n3)cc2N[C@H]2CC[C@@H](CO)CC2)ncc1F [Example 105] was 1.2

Consider Cc1cc(-c2cnc(Nc3ccnc(-c4cnn(S(=O)(=O)C5CC5)c4)n3)cc2N[C@H]2CC[C@@](C)(O)CC2)nnc1C [Example 50] . Its measured IC50 is 0.1

Lab book: IC50 of C[C@]1(O)CC[C@@H](Nc2cc(Nc3ccnc(-c4cnn(S(=O)(=O)C5CC5)c4)n3)ncc2-c2ccc(C(F)(F)F)nn2)CC1 [Example 51] noted as 0.6

For this compound ( C[C@]1(O)CC[C@@H](Nc2cc(Nc3ccnc(-c4cnn(S(=O)(=O)C5CC5)c4)n3)ncc2-c2ccc(N3CCC(F)(F)CC3)cn2)CC1 [Example 47] ), measured IC50 is 3

IC50 recorded for this compound, CC(=O)c1cccc(-c2cnc(Nc3ccnc(-c4cnn(S(=O)(=O)C5CC5)c4)n3)cc2N[C@H]2CC[C@@](C)(O)CC2)n1 [Example 18] , is 3.1

// recorded IC50 for CC(C)(O)c1ccnc(-c2cnc(Nc3ccnc(-c4cnn(S(=O)(=O)C5CC5)c4)n3)cc2N[C@H]2CC[C@@H](C(C)(C)O)CC2)c1 [Example 109] : 0.5

Measured IC50 of C[C@]1(O)CC[C@@H](Nc2cc(Nc3ccnc(-c4cnn(S(=O)(=O)C5CC5)c4)n3)ncc2-c2ccc(N3CCC(O)CC3)cn2)CC1 [Example 49] : 0.3

Record Cc1ccc(-c2cnc(Nc3ccnc(-c4cnn(S(=O)(=O)C5CC5)c4)n3)cc2N[C@H]2CC[C@@](C)(O)CC2)nc1 [Example 8] . Reported IC50: 0.2

CN1CCN(Cc2ccc(-c3cnc(Nc4ccnc(-c5cnn(S(=O)(=O)C6CC6)c5)n4)cc3N[C@H]3CC[C@](O)(CO)CC3)nc2)CC1 [Example 11] has a reported IC50 of 0.2

IC50 reading for Cc1cnc(-c2cnc(Nc3ccnc(-c4cnn(S(=O)(=O)C5CC5)c4)n3)cc2N[C@H]2CC[C@@](C)(O)CC2)cn1 [Example 59] : 0.7

Per the record, CC(C)(O)[C@H]1CC[C@@H](Nc2cc(Nc3ccnc(-c4cnn(S(=O)(=O)C5CC5)c4)n3)ncc2-c2ccc(N3CCOCC3)cn2)CC1 [Example 45] has IC50 of 2.6

// IC50 value for C[C@]1(O)CC[C@@H](Nc2cc(Nc3ccnc(-c4cnn(S(=O)(=O)C5CC5)c4)n3)ncc2-c2cnc(N3CCOCC3)cn2)CC1 [Example 44] : 0.6

Record CN1CCN(c2ccc(-c3cnc(Nc4ccnc(-c5cnn(S(=O)(=O)C6CC6)c5)n4)cc3N[C@H]3CC[C@@H](C(C)(C)O)CC3)nc2)CC1 [Example 84] . Reported IC50: 0.5

Please fill in: IC50 reported for CN(C)CCOc1cnc(-c2cnc(Nc3ccnc(-c4cnn(S(=O)(=O)C5CC5)c4)n3)cc2NC2CCC(C)(O)CC2)cn1 (stereo not drawn) [Example 115] = 0.1

Noted for CN1CCN(c2ccc(-c3cnc(Nc4ccnc(-c5cnn(S(=O)(=O)C6CC6)c5)n4)cc3N[C@H]3CC[C@@](C)(O)CC3)nn2)CC1 [Example 46] : its IC50 reads 0.2
